molecular target: µ opioid receptor of the guinea pig isolated ileum (guinea pig, UniProt P97266 1-98); test: cell-based or functional assay
Sequence (P97266 whole entry): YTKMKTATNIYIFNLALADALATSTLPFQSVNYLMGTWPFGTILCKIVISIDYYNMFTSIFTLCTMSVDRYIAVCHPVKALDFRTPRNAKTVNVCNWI
Bridge positions count the residues as written; N and C are the ends. Square brackets hold non-standard residues; d marks the D form. Ends that are not written are not given here. * marks the point of attachment. NH(3,5-(CF3)2-benzyl) = FC(F)(F)c1cc(CN*)cc(C(F)(F)F)c1; OBzl(3,5-(CF3)2) = FC(F)(F)c1cc(CO*)cc(C(F)(F)F)c1; Nle = CCCC[C@H](N)C(=O)O
Provide the recorded GPI/LMMP opioid(mu) agonist IC50 for the entries that follow.

Look over these answered cases.
Y[dA]GF[dF]PLW-{OBzl(3,5-(CF3)2)} [TyrDAlaGlyPheDPheProLeuTrpOBn(CF3)2 (TY007)]
9.2%
Y[dC]GFCPLW-{NH(3,5-(CF3)2-benzyl)} (disulfide 2-5, also called [D-Cys2, Cys5]) [Tyr[DCysGlyPheCys]ProLeuTrpNHBn(CF3)2 (TY039)]
10.1 % at 1 uM
Y[dC]GF[Nle]P[dC]W-{NH(3,5-(CF3)2-benzyl)} (disulfide 2-7) [Tyr[DCysGlyPheNleProDCys]TrpNHBn(CF3)2 (TY038)]
3 % at 1 uM

Now examine the next entry.
stdin: Can you share its GPI/LMMP opioid(mu) agonist IC50? I mean this binder: Y[dA]GFFPLW-{OBzl(3,5-(CF3)2)} [TyrDAlaGlyPhePheProLeuTrpOBn(CF3)2 (TY003)]
stdout: 6.6 % @ 1 uM
